Assay: Vorinostat serum pharmacokinetics
Assay type: in vivo, human
Conditions: human, serum, po, 100 mg, AUC, vorinostat 100 mg PO BID, Day 1, serum, mean
value-type: AUC (µM·h)
API: value field is a number in µM·h; no unit string.

Could you share which AUC value was measured for O=C(CCCCCCC(=O)Nc1ccccc1)NO [vorinostat, Suberoylanilide Hydroxamic Acid] ?
2.5

###

Assay: Vorinostat serum pharmacokinetics
Format: in vivo, human
Details: human, serum, po, 300 mg, t1/2, vorinostat 300 mg PO BID, Day 1, serum, mean
value-type: half-life (h)
Write the value in h as a bare number.

Param item = O=C(CCCCCCC(=O)Nc1ccccc1)NO [vorinostat, Suberoylanilide Hydroxamic Acid] ; retrieve measured half-life.
2.3

###

Test: Vorinostat serum pharmacokinetics
Format: in vivo, human
Settings: human, serum, po, 300 mg, t1/2, vorinostat 300 mg PO BID, Day 5 (with FOLFOX), serum, mean
value-type: half-life (h)
Value expressed in h; do not type the unit.

What half-life value was documented for this molecule, O=C(CCCCCCC(=O)Nc1ccccc1)NO [vorinostat, Suberoylanilide Hydroxamic Acid] ?
2.3

###

Assay: Vorinostat serum pharmacokinetics
Assay type: in vivo, human
Conditions: human, serum, po, 100 mg, Tmax, vorinostat 100 mg PO BID, Day 1, serum, mean
value-type: Tmax (h)
// note: answer is a bare numeric in h

Given the entry O=C(CCCCCCC(=O)Nc1ccccc1)NO [vorinostat, Suberoylanilide Hydroxamic Acid] , report its measured Tmax.
2.4

###

Experiment: Vorinostat serum pharmacokinetics
Type: in vivo, human
Details: human, serum, po, 200 mg, Cmax, vorinostat 200 mg PO BID, Day 1, serum, mean
value-type: Cmax (nM)
Response body: numeric value in nM, unit text excluded.

# input compound: O=C(CCCCCCC(=O)Nc1ccccc1)NO [vorinostat, Suberoylanilide Hydroxamic Acid] ; wanted: its Cmax
816

###

Experiment: Vorinostat serum pharmacokinetics
Assay type: in vivo, human
Conditions: human, serum, po, 300 mg, Cmax, vorinostat 300 mg PO BID, Day 1, serum, mean
value-type: Cmax
Answer format: value, then unit.

I am curious: what Cmax value has been reported for O=C(CCCCCCC(=O)Nc1ccccc1)NO [vorinostat, Suberoylanilide Hydroxamic Acid] ?
1460 nM

###

Assay: Vorinostat serum pharmacokinetics
Format: in vivo, human
Details: human, serum, po, 400 mg, Tmax, vorinostat 400 mg PO BID, Day 1, serum, mean
value-type: Tmax (h)
API: value field is a number in h; no unit string.

Name the reported Tmax value associated with the compound O=C(CCCCCCC(=O)Nc1ccccc1)NO [vorinostat, Suberoylanilide Hydroxamic Acid]
1.9

###

Assay: Vorinostat serum pharmacokinetics
Format: in vivo, human
Conditions: human, serum, po, Cmax of vorinostat, at all dose levels (100-400 mg PO BID)
value-type: Cmax

Given the entry O=C(CCCCCCC(=O)Nc1ccccc1)NO [vorinostat, Suberoylanilide Hydroxamic Acid] , report its measured Cmax.
< 2000 nM

###

Experiment: Vorinostat serum pharmacokinetics
Format: in vivo, human
Settings: human, serum, po, 400 mg, AUC, vorinostat 400 mg PO BID, Day 1, serum, mean
value-type: AUC (µM·h)
Give just the number in µM·h; leave the unit off.

Data request, read-out AUC, for O=C(CCCCCCC(=O)Nc1ccccc1)NO [vorinostat, Suberoylanilide Hydroxamic Acid]
4.5

###

Experiment: Vorinostat serum pharmacokinetics
Format: in vivo, human
Details: human, serum, po, 200 mg, Tmax, vorinostat 200 mg PO BID, Day 5 (with FOLFOX), serum, mean
value-type: Tmax (h)
Supply the numeric figure in h, leaving out any unit text.

Which Tmax reading was recorded for the compound O=C(CCCCCCC(=O)Nc1ccccc1)NO [vorinostat, Suberoylanilide Hydroxamic Acid] ?
2.7
